Assay: calorie-restriction mimetic ROS inhibitors, yeast – validation compound set, pilot screen (AID 2706);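 note: yeast exposed to compound for one week at 30 degrees C before staining; 100% = mean of all compound wells on the same plate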
Details: S. cerevisiae aging, superoxide DHE fluorescence; at 10 µM; stronger effect = lower value
Reported superoxide response (% of plate) by item:
MEASURED METRIC: superoxide response (% of plate) (%)

INSERT INTO assay_data (compound, measured_metric, observed_measurement) VALUES
  ('CCC(=O)c1ccc(OCc2ccc(C(=O)OC)cc2)cc1', 'superoxide response (% of plate)', 90.3),
  ('O=C(COc1ccccc1)Nc1ccc2c(c1)C(=O)N(CC1CCCO1)C2=O (stereo unspecified)', 'superoxide response (% of plate)', 110),
  ('CC1(C)Cc2nc3sc4c(=O)n(CC(N)=O)cnc4c3cc2CO1', 'superoxide response (% of plate)', 102),
  ('O=C(O)C1Cc2ccccc2CN1S(=O)(=O)c1ccccc1 (stereo unspecified)', 'superoxide response (% of plate)', 107),
  ('N#C/C(C(N)=O)=c1/ccc2c(c1)N1C3=C(CCCC3)CC3CCCCC31N=2 (stereo unspecified)', 'superoxide response (% of plate)', 92.3),
  ('COc1ccc(CNC(=O)N[C@H](C(=O)O)C(C)C)cc1OC', 'superoxide response (% of plate)', 112);

====

Assay: reduced mouse 2C T cell binding to pMHC/ICAM-1 vesicles – MLPCN validation set, flow cytometry, LFA-1/ICAM-1 modulator project, pilot screen (AID 2523)
Conditions: 2C mouse CD8+ T cells, at 7 µM, stronger effect = lower value; measured here: CD8+/vesicle+ event percentage
Measured double positive events, listed per entry.
MEASURED METRIC: double positive events (%)

INSERT INTO results (molecule, measured_metric, unit_tag, observed_measurement) VALUES
  ('O=C(CCSc1ccccc1)N1CCCC1', 'double positive events', '%', 67.6),
  ('CC(=O)c1c[nH]c2ccc(C)cc2c1=O', 'double positive events', '%', 60.8),
  ('CC[N+]1(C)CC2CCC(C)(C1)C2(C)C (stereo unspecified)', 'double positive events', '%', 59.7),
  ('Cc1ccc2c(c1)c(=O)c1c3n2CCN(C(=O)CCl)C3CC1 (stereo unspecified)', 'double positive events', '%', 58.2),
  ('COc1cccc(N2C(=O)CC(c3c[nH]c4ccccc34)C2=O)c1 (stereo unspecified)', 'double positive events', '%', 61.9),
  ('CC1(C)CC(CNCCC(c2ccc(F)cc2)c2ccco2)CCO1 (stereo unspecified)', 'double positive events', '%', 93.3),
  ('COc1ccc(C2=C(CN(C)C)C(c3ccccc3)c3ccccc3O2)cc1 (stereo unspecified)', 'double positive events', '%', 61.4),
  ('COc1ccc(C2=NOC(COc3ccc4c(C)cc(=O)oc4c3)C2)c(OC)c1 (stereo unspecified)', 'double positive events', '%', 62.4),
  ('COc1ccccc1C(=O)Nc1cc2cc(Br)ccc2oc1=O', 'double positive events', '%', 58.5),
  ('CCCCNc1ccc(C(=O)OCCN(C)C)cc1', 'double positive events', '%', 63.6),
  ('CCCCCCCC(=O)OCC(=O)[C@@]1(O)CC[C@H]2[C@@H]3CCC4=CC(=O)CC[C@]4(C)[C@H]3[C@@H](O)C[C@@]21C', 'double positive events', '%', 58.8);

====

Test: AML differentiation inducers, ER-HoxA9 marrow cells – cell-based, GFP/MAC1 double positive, flow cytometry, validation set, primary screen (AID 588685);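 note: compound exposure lasts four days before antibody staining and flow analysis; 0% = DMSO wells and 100% = 5 µM fulvestrant positive control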
Conditions: stronger effect = higher value, normalized: vehicle 0, fulvestrant 100
MEASURED METRIC: differentiation response (%)

INSERT INTO assay_data (compound, observed_measurement) VALUES
  ('COc1cc(CNCCc2c[nH]c3ccccc23)cc(Cl)c1OCC(N)=O', -10.4),
  ('Oc1ccccc1OCCOc1ccccc1OCCOc1ccccc1O', -6.96),
  ('NC(=O)c1ccccc1O', 10.3),
  ('Cc1cn([C@H]2C[C@H](N=[N+]=[N-])[C@@H](CO)O2)c(=O)[nH]c1=O', 14.7),
  ('COc1ccc(/C=C(/C#N)c2cccnc2)cc1OC', 17.1),
  ('O=C(O)CCCNc1ccc(S(=O)(=O)Nc2ccccc2C(=O)O)cc1C(=O)O', 4.15),
  ('Cn1c([N+](=O)[O-])cnc1COC(N)=O', -3.28),
  ('C#CCOc1ccc2c(C)cc(=O)oc2c1', 16.9),
  ('Cc1nc2ccccc2n1CC(=O)NC1CCCC1', -8.96),
  ('CCCCOc1ccc(C(=O)CCN2CCCCC2)cc1', 4.2),
  ('O=C(O)Cc1ccc(-c2ccccc2)cc1', -24.8),
  ('COc1ccc(-n2cc(CNCc3cccnc3)c(-c3cccc(F)c3)n2)cc1', 4.15),
  ('OCCN(CCO)c1nc(N2CCCCC2)c2nc(N(CCO)CCO)nc(N3CCCCC3)c2n1', -7.94),
  ('NC(=O)[C@@H]1[C@@H]2C(=O)N(c3ccc(F)cc3)C(=O)[C@@H]2[C@H]2C=Cc3ccccc3N21', 3.45),
  ('CCNC(=O)C(Cc1ccccc1)NC(=O)OCc1ccccc1 (stereo not given)', -12.9),
  ('Cc1ccc(S(=O)(=O)N[C@@H](C)C(=O)N2CCC(C(=O)N3CCC[C@H]3C(=O)O)CC2)cc1', 0),
  ('CN(C)CCOC(c1ccccc1)c1ccccc1 (tested in a mixture with another compound)', 5.13),
  ('COc1ccc2cc(C3(C)NC(=O)NC3=O)ccc2c1 (stereo not given)', 7.2),
  ('CC(C)(C)OC(=O)COc1cc(OCC(=O)OC(C)(C)C)c2c(=O)cc(-c3ccccc3)oc2c1', -4.57),
  ('COc1ccc(C2NC(C(=O)O)Cc3c2[nH]c2ccccc32)cc1CN1CCN(c2ccc(F)cc2)CC1 (stereo not given)', 1.22),
  ('CCn1c(N2CCN(CC(=O)c3c(C)n(C)c4ccc(OC)cc34)CC2)nc2c1c(=O)[nH]c(=O)n2C', -2.69),
  ('O=C(O)CCNC(=O)c1ccccc1', 26.2),
  ('Cc1ccc2c(c1)C1(C(=O)N2)N2CCCC2C(C(=O)c2ccc3ccccc3c2)C12C(=O)Nc1ccccc12 (stereo not given)', -0.73),
  ('CN(C)CCCN1c2ccccc2Sc2ccccc21', 23.6),
  ('Cc1ccsc1/C=C/C1=NCCCN1C', -3.11),
  ('CC(C)CCC1(CCNC(C)c2cccs2)CCOC(C)(C)C1 (stereo not given)', 1.22),
  ('Cc1nonc1CN(C)C(=O)c1ccc(OC2CCN(C(=O)c3cccnc3)CC2)cc1', -8.96),
  ('Cc1nc(N)sc1C(=O)N/N=C/c1ccco1', -4.57),
  ('O=C1C(Cc2c[nH]c3ccccc23)NC(=S)N1Cc1ccccc1 (stereo not given)', 7.13),
  ('CN(C)CCCN1c2ccccc2CCc2ccccc21', 6.11),
  ('NCCc1ccc(O)c(O)c1', 5.13),
  ('NS(=O)(=O)c1cc2c(cc1C(F)(F)F)NC(Cc1ccccc1)NS2(=O)=O (stereo not given)', -0.82),
  ('CC12CN3CC(C)(CN(C1)C3c1ccc(Cl)cc1Cl)C2=O (stereo not given)', -8.55),
  ('COC(=O)C1[C@H]2C(=O)N(Cc3cccs3)C[C@]23C=C[C@H]1O3 (stereo not given in full)', 14.9),
  ('C[C@]12CC[C@@H]3c4ccc(O)cc4CC[C@H]3[C@@H]1CC[C@@H]2O', 9.54),
  ('O=c1c(C(c2ccccc2)c2c(O)sc3ccccc3c2=O)c(O)sc2ccccc12', 37.4),
  ('COc1cc(C)nc(-n2nc(C)cc2OC)n1', 8.06),
  ('COCCCN1C(=O)C(=O)/C(=C(/O)c2ccc3c(c2)CC(C)O3)C1c1cccnc1 (stereo not given)', -9.91),
  ('COC(=O)c1cc(COc2ccc3ccc(=O)oc3c2)c(C)o1', -7.5),
  ('O=C(Cc1ccccc1)NCC(=O)OCC(=O)c1ccccc1Cl', -0.82),
  ('COc1ccc(C(=O)Nc2cccc3cccnc23)cc1OC', -17.7),
  ('O=C1CC[C@@H](CN(Cc2ccccc2)Cc2cn[nH]c2-c2cc3ccccc3o2)N1', -7.94),
  ('CCOc1ncnc2c1[nH]c1ccccc12', -31.2),
  ('CC(=O)OCC(=O)[C@@]1(O)[C@H](C)C[C@H]2[C@@H]3CCC4=CC(=O)C=C[C@]4(C)[C@@]3(F)[C@@H](O)C[C@@]21C', -3.28),
  ('Nc1cnn(C2OC(CO)C(O)C2O)c(=O)n1 (stereo not given)', -8.55);

====

The following compounds are shown together with reported efflux inhibition (fraction of control) values.
Assay: Nile Red efflux blockade in pump-expressing yeast – validation compound set, multiplex, phenotypic, pilot screen (AID 588506);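 note: Nile Red retained in cells so higher fluorescence means more efflux inhibition; 0 = negative control wells and 1 = enniatin B 25 µM full block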
Conditions: S. cerevisiae pump-expressing triplex, Nile Red efflux flow cytometry; at 10 µM; stronger effect = higher value; the pumps come from Candida albicans
Active and inactive are the calls of the source.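 The calls were made as follows: active = efflux inhibition above 0.42, the validation set average plus 4 SD; inconclusive = no clear call, values can overlap the other calls; inactive = the rest.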
MEASURED METRIC: efflux inhibition (fraction of control)

INSERT INTO measurements (compound, observed_measurement) VALUES
  ('O=C(NCCC(c1ccccc1)c1ccco1)c1cccs1 (configuration not stated)', '-0.21 (inactive)'),
  ('COc1ccc(C(=O)Nc2ccccc2C(=O)NC(Cc2c[nH]c3ccccc23)C(=O)O)cc1 (configuration not stated)', '0.33 (inactive)'),
  ('CCNC1=C(Cl)C(=O)c2ccccc2C1=O', '-0.09 (inactive)'),
  ('CC[C@]1(O)CC2CN(CCc3c([nH]c4ccccc34)[C@@](C(=O)OC)(c3cc4c(cc3OC)N(C=O)[C@H]3[C@@](O)(C(=O)OC)[C@H](OC(C)=O)[C@]5(CC)C=CCN6CC[C@]43[C@@H]65)C2)C1 (some centres not stated)', '0.12 (inactive)'),
  ('COc1cc(CNCc2ccc(OC)c(OC)c2OC)cc(OC)c1', '0 (inactive)'),
  ('CCOC(=O)C(=Cc1ccccc1OC)C(=O)OCC', '-0.03 (inactive)'),
  ('OC(C#CCN1CCCC1)(c1ccccc1)c1cccnc1 (configuration not stated)', '-0.09 (inactive)'),
  ('O=C(Nc1ccc(Cl)cn1)Nc1ccccc1Cl', '-0.55 (inactive)'),
  ('CCOc1ccc2nc(N/C(N)=N/S(C)(=O)=O)nc(C)c2c1', '0.05 (inactive)'),
  ('Cc1coc2cc3oc(=O)c(CCC(=O)O)c(C)c3cc12', '-0.17 (inactive)'),
  ('Cc1cnc(N)c2c(=O)oc3ccccc3c12', '-0.01 (inactive)'),
  ('Cc1cn([C@H]2C[C@H](N=[N+]=[N-])[C@@H](CO)O2)c(=O)[nH]c1=O', '0.05 (inactive)'),
  ('Cc1ccc(N2C(=O)c3ccccc3C2=O)cc1C', '0.24 (inactive)'),
  ('CCOC(=O)c1cccc(P(C)(C)=O)c1', '-0.04 (inactive)'),
  ('CCCC(=O)O[C@]1(C(=O)CCl)[C@@H](C)C[C@H]2[C@@H]3CCC4=CC(=O)C=C[C@]4(C)[C@@]3(F)C(=O)C[C@@]21C', '0.23 (inactive)'),
  ('COc1ccccc1C(CCN(Cc1ccccc1)C(C)=O)c1ccco1 (configuration not stated)', '0.12 (inactive)'),
  ('CC1CCc2cc(F)cc3c(=O)c(C(=O)O)cn1c23 (configuration not stated)', '-0.04 (inactive)'),
  ('CC1(C)C(C=C(Cl)Cl)C1C(=O)N1CCN(Cc2ccccc2)CC1 (configuration not stated)', '-0.01 (inactive)'),
  ('COc1ccc(C2c3c(n[nH]c3C)CC(C)(O)C2C(C)=O)cc1OC (configuration not stated)', '-0.13 (inactive)'),
  ('CN(C)CC/C=C1\c2ccccc2Sc2ccc(Cl)cc21', '0.08 (inactive)'),
  ('CC(=O)N1CCN2C(=O)C1CCCC(=O)c1cc(C(C)C)ccc12 (configuration not stated)', '-0.24 (inactive)'),
  ('COc1ccc2oc(-c3ccco3)cc(=O)c2c1', '-0.28 (inactive)');
